target: human plasma Kallikrein (Homo sapiens, UniProt P03952); construct: purchased Stratech, UK; assay: Phage selections against human plasma Kallikrein (abundance in selection output); assay type: binding; conditions: Table 17; relative abundance in the total selection outputs
Sequence (P03952 20-638): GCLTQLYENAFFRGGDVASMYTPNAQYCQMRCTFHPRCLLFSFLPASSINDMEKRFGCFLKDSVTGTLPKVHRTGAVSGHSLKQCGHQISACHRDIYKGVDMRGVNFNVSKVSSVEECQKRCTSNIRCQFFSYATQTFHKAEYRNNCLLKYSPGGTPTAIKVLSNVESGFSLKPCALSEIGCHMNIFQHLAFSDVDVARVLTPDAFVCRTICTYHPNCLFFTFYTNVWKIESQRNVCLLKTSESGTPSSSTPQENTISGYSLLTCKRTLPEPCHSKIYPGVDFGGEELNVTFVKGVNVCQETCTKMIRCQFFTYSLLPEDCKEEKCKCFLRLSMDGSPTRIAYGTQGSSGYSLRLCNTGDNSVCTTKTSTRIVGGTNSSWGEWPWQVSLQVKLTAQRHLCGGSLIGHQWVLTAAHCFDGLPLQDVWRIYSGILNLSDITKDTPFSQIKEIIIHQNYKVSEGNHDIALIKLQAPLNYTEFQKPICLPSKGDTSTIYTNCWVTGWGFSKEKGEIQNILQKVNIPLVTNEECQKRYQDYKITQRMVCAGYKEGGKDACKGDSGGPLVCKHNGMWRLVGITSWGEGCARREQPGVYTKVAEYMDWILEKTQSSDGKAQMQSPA
metric.name: FREQUENCY

residue.sequence	FREQUENCY
CSWPYHCTHQDLC	1
CSLFDHCTHQDLC	1
CRFPFKCTHQDLC	1
CSWSYRCTHQDLC	1
CSHPYRCTHQDLC	2
CSWSARCTHQDLC	10
CSFSYKCTHQDLC	1
CSFMYKCTHQDLC	1
CSWPARCTHQDLC	24
CSWLARCTHQDLC	8

[P] CSQVVGCTHQDLC
[Q] CSWPYRCTHQDLC
Which entry shows the lesser value of FREQUENCY here, P or Q ? // output: label of the selected item
P
(P: 1, Q: 3)

[P] CSIPFKCTHQDLC
[Q] CSFLYKCTHQDLC
Which shows the larger FREQUENCY value: P or Q ? // output: label of the selected item
Q
(Q: 2, P: 1)

[a] CSWPYKCTHQDLC
[b] CSFPYRCTHQDLC
Which entry shows the lesser value of FREQUENCY here, a or b ? // output: label of the selected item
a
(a: 1, b: 12)

# credit: patent US10118947B2
